organism: Homo sapiens; assay: Inhibitory activity against adenosine diphosphate (ADP)-induced platelet aggregation; type: functional, organism-based
Listed here are compounds together with their documented pIC50.
// field semantics: pIC50 = negative decimal log of concentration (mol/L)

Example entries and their recorded answers appear below.
| given-smiles | pIC50 |
| --- | --- |
| N=C(N)c1ccc(NC(=O)COc2ccc(C[C@H](NC(=O)c3ccccc3)C(=O)O)cc2)cc1 | 6.57 |
| N=C(N)c1ccc(OCCOc2ccc(C[C@H](NC(=O)c3ccco3)C(=O)O)cc2)cc1 | 6.15 |
| N=C(N)c1ccc(NC(=O)COc2ccc(C[C@H](NC(=O)c3ccc4ccccc4c3)C(=O)O)cc2)cc1 | 6.29 |
| Cc1ccc(C(=O)N[C@@H](Cc2ccc(OCC(=O)Nc3ccc(C(=N)N)cc3)cc2)C(=O)O)cc1 | 6.60 |

Provide one value: measured pIC50 of N=C(N)c1ccc(OCCOc2ccc(C[C@H](NC(=O)c3ccccc3)C(=O)O)cc2)cc1 6.13

Provide one value: measured pIC50 of Cc1ccccc1OCC(=O)N[C@@H](Cc1ccc(OCC(=O)Nc2ccc(C(=N)N)cc2)cc1)C(=O)O 6.21
